# System: human JAK1 (a.a. 837-1142)
# Assay Remarks: In vitro JAK kinase assay (HTRF, phosphorylation of a biotinylated peptide), JAK1
# Format: biochemical
# Conditions: measured at 1 mM ATP; JAK2 IC50 / JAK1 IC50
# Description: Compounds herein were tested for inhibitory activity of JAK targets according to the following in vitro assay described in Park et al., Analytical Biochemistry 1999, 269, 94-104. […] The phosphorylated peptide was detected by homogenous time resolved fluorescence (HTRF). […] Binding to the Europium labeled antibody took place for 40 minutes and HTRF signal was measured on a Fusion plate reader (Perkin Elmer, Boston, Mass.).
Recorded IC50 Ratio JAK2/JAK1 determines the label; the label ranges are low: < 4; mid: ≥ 4 and < 5; high: ≥ 5

Compound | Label
COc1cc(F)cc(C(=O)N2CCC(N3CC(CC#N)(n4cc(-c5ncnc6[nH]ccc56)cn4)C3)CC2)c1 [Example 36] | low
CC1CC(N2CC(CC#N)(n3cc(-c4ncnc5[nH]ccc45)cn3)C2)CCN1C(=O)c1cccc(F)c1 (single isomer, unassigned) [Example 150] | high
N#CCC1(n2cc(-c3c(F)cnc4[nH]ccc34)cn2)CN(C2CCN(C(=O)c3ccc(O)c(F)c3)CC2)C1 [Example 322] | mid
N#CCC1(n2cc(-c3ncnc4[nH]ccc34)cn2)CN(C2CCN(C(=O)Nc3cccc(Cl)c3)CC2)C1 [Example 183] | low
N#CCC1(n2cc(-c3ncnc4[nH]ccc34)cn2)CN(C2CCN(C(=O)c3cc(F)cc(Cl)c3)CC2)C1 [Example 28] | high
N#CCC1(n2cc(-c3ncnc4[nH]ccc34)cn2)CN(C2CCN(C(=O)c3sc(C(F)(F)F)cc3O)CC2)C1 [Example 71] | mid
Cc1ccsc1C(=O)N1CCC(N2CC(CC#N)(n3cc(-c4ncnc5[nH]ccc45)cn3)C2)CC1 [Example 78] | high
N#CCC1(n2cc(-c3ncnc4[nH]ccc34)cn2)CN(C2CCN(C(=O)c3ccc(C(F)(F)F)c(F)c3)CC2)C1 [Example 52] | mid
N#CCC1(n2ccc(-c3ncnc4[nH]ccc34)c2)CN(C2CCN(C(=O)c3ccc(C#N)cc3F)CC2)C1 [Example 264] | high
N#CCC1(n2cc(-c3ncnc4[nH]ccc34)cn2)CN(C2CCN(C(=O)c3ccccc3F)CC2)C1 [Example 67] | mid
N#CCC1(n2cc(-c3ncnc4[nH]ccc34)cn2)CN(C2CCN(C(=O)c3ccc(-c4cccc5ccncc45)c(F)c3)CC2)C1 [Example 131] | high
N#CCC1(n2cc(-c3ccnc4[nH]ccc34)cn2)CN(C2CCN(C(=O)Nc3ccccc3F)CC2)C1 [Example 309] | high
N#CCC1(n2cc(-c3ncnc4[nH]ccc34)cn2)CN(C2CCN(C(=O)c3sc4cccc(F)c4c3Cl)CC2)C1 [Example 92] | low

###

Form field: IC50 Ratio JAK2/JAK1 (one value per entry).
# System: human JAK1 (a.a. 837-1142)
# Assay Remarks: In vitro JAK kinase assay (HTRF, phosphorylation of a biotinylated peptide), JAK1
# Format: biochemical
# Conditions: measured at 1 mM ATP; JAK2 IC50 / JAK1 IC50

Compound | IC50 Ratio JAK2/JAK1
N#CCC1(n2cc(-c3ncnc4[nH]ccc34)cn2)CN(C2CCN(C(=O)C3CCc4ccccc4C3)CC2)C1 (stereo not shown) [Example 97] | 2.2
COc1cc(C(=O)N2CCC(N3CC(CC#N)(n4cc(-c5ncnc6[nH]ccc56)cn4)C3)CC2)cc(Cl)n1 [Example 37] | 2.1
N#CCC1(n2cc(-c3ncnc4[nH]ccc34)cn2)CN(C2CCN(C(=O)c3ccc(C#N)cc3)CC2)C1 [Example 12] | 5.2
N#CCC1(n2ccc(-c3ncnc4[nH]ccc34)c2)CN(C2CCN(C(=O)c3cc(F)ccc3F)CC2)C1 [Example 278] | 5.6

###

# System: human JAK1 (a.a. 837-1142)
# Assay Remarks: In vitro JAK kinase assay (HTRF, phosphorylation of a biotinylated peptide), JAK1
# Type: biochemical
# Conditions: measured at 1 mM ATP; JAK2 IC50 / JAK1 IC50
Values of IC50 Ratio JAK2/JAK1 strictly less than 4 map to condition met, and values of at least 4 map to condition not met.

Molecule | System | Label
N#CCC1(n2cc(-c3ncnc4[nH]ccc34)cn2)CN(C2CCN(C(=O)c3ccc(-c4cccc(C#N)c4)c(F)c3)CC2)C1 | human JAK1 (a.a. 837-1142) | condition not met
N#CCC1(n2cc(-c3ncnc4[nH]ccc34)cn2)CN(C2CC3CCC(C2)N3C(=O)c2ccc(F)c(F)c2)C1 (stereo not shown) | human JAK1 (a.a. 837-1142) | condition not met
CS(=O)(=O)N1CCC(N2CC(CC#N)(n3cc(-c4ccnc5[nH]ccc45)cn3)C2)CC1 | human JAK1 (a.a. 837-1142) | condition met
Cn1ccc(S(=O)(=O)N2CCC(N3CC(CC#N)(n4cc(-c5ncnc6[nH]ccc56)cn4)C3)CC2)n1 | human JAK1 (a.a. 837-1142) | condition not met
N#CCC1(n2cc(-c3ncnc4[nH]ccc34)cn2)CN(C2CCN(C(=O)c3ccc4ncccc4c3)CC2)C1 | human JAK1 (a.a. 837-1142) | condition met
N#CCC1(n2cc(-c3ccnc4[nH]ccc34)cn2)CN(C2CCN(C(=O)Nc3ccc(F)cc3Cl)CC2)C1 | human JAK1 (a.a. 837-1142) | condition not met
COc1cc(F)ccc1C(=O)N1CCC(N2CC(CC#N)(n3cc(-c4ncnc5[nH]ccc45)cn3)C2)CC1 | human JAK1 (a.a. 837-1142) | condition not met
N#CCC1(n2cc(-c3ncnc4[nH]ccc34)cn2)CN(C2CCN(C(=O)c3ccc(-c4ccncc4)c(F)c3)CC2)C1 | human JAK1 (a.a. 837-1142) | condition not met
N#CCC1(n2cc(-c3c(F)cnc4[nH]ccc34)cn2)CN(C2CCN(C(=O)c3cnc(C(F)(F)F)cn3)CC2)C1 | human JAK1 (a.a. 837-1142) | condition met
COc1ncccc1NC(=O)N1CCC(N2CC(CC#N)(n3ccc(-c4ncnc5[nH]ccc45)c3)C2)CC1 | human JAK1 (a.a. 837-1142) | condition not met
N#CCC1(n2cc(-c3ccnc4[nH]ccc34)cn2)CN(C2CCN(C(=O)c3cnc(C(F)(F)F)cn3)CC2)C1 | human JAK1 (a.a. 837-1142) | condition met
N#CCC1(n2cc(-c3ncnc4[nH]ccc34)cn2)CN(C2CCN(C(=O)c3ccc(-c4ccccc4)cc3)CC2)C1 | human JAK1 (a.a. 837-1142) | condition met
N#CCC1(n2cc(-c3ncnc4[nH]ccc34)cn2)CN(C2CCN(C(=O)c3cccc(Br)c3)CC2)C1 | human JAK1 (a.a. 837-1142) | condition not met
COc1cccc(F)c1CN1CCC(N2CC(CC#N)(n3cc(-c4ncnc5[nH]ccc45)cn3)C2)CC1 | human JAK1 (a.a. 837-1142) | condition met
N#CCC1(n2cc(-c3ncnc4[nH]ccc34)cn2)CN(C2CCN(C(=O)Nc3ncc(F)cc3F)CC2)C1 | human JAK1 (a.a. 837-1142) | condition not met
CCCOC(=O)N1CCC(N2CC(CC#N)(n3cc(-c4ncnc5[nH]ccc45)cn3)C2)CC1 | human JAK1 (a.a. 837-1142) | condition not met
N#CCC1(n2cc(-c3ncnc4[nH]ccc34)cn2)CN(C2CCN(S(=O)(=O)c3cccc(C#N)c3)CC2)C1 | human JAK1 (a.a. 837-1142) | condition not met
N#CCC1(n2cc(-c3ncnc4[nH]ccc34)cn2)CN(C2CC3CCC(C2)N3C(=O)c2ccnc(C(F)(F)F)c2F)C1 (stereo not shown) | human JAK1 (a.a. 837-1142) | condition not met
CC1CC(N2CC(CC#N)(n3cc(-c4ncnc5[nH]ccc45)cn3)C2)CCN1C(=O)C1CCC(F)(F)CC1 (stereo not shown) | human JAK1 (a.a. 837-1142) | condition not met
N#CCC1(n2cc(-c3ncnc4[nH]ccc34)cn2)CN(C2CCN(C(=O)C3CCCC3)CC2)C1 | human JAK1 (a.a. 837-1142) | condition not met
CC1(COC(=O)N2CCC(N3CC(CC#N)(n4cc(-c5ncnc6[nH]ccc56)cn4)C3)CC2)CC1 | human JAK1 (a.a. 837-1142) | condition not met
N#CCC1(n2cc(-c3ncnc4[nH]ccc34)cn2)CN(C2CCN(C(=O)c3cc(F)c(F)cc3F)CC2)C1 | human JAK1 (a.a. 837-1142) | condition not met
N#CCC1(n2cc(-c3c(C#N)cnc4[nH]ccc34)cn2)CN(C2CCN(C(=O)c3ccc(C#N)c(F)c3)CC2)C1 | human JAK1 (a.a. 837-1142) | condition not met
N#CCC1(n2cc(-c3ncnc4[nH]ccc34)cn2)CN(C2CCN(Cc3c(F)cccc3C(F)(F)F)CC2)C1 | human JAK1 (a.a. 837-1142) | condition not met
